Measured values drawn from paper PMC5540273 for this set.

Test system: IKK-epsilon
Construct: gene IKBKE
conditionDescription: concentration: 1 μM, replicates: in singlicate; n = 1;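 further: KINOMEscan kinase panel screen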
%Inh listing for selected compounds.

compound: O=C(Nc1n[nH]c2nc(-c3ccco3)c(Br)cc12)C1CCN(Cc2ccccc2)C1.O=C(O)[C@H](O)[C@@H](O)C(=O)O (centres unmarked) [SB-742034]
%Inh [%]: 19
//
compound: O=c1cc(N2CCOCC2)nc2n(Cc3cccc(Cl)c3Cl)c3ccccc3n12 [GSK2299009]
%Inh [%]: 37
//
compound: Cc1ccc(-c2nc(Nc3ccncc3)c3ccccc3n2)s1 [GSK189015]
%Inh [%]: 0
//
compound: CC(C)c1ccc(O)cc1Nc1ccnc2ccc(C(F)(F)F)cc12 [GW482059]
%Inh [%]: 0
//
compound: Cn1cnc2c(N)ncnc21 [SKF-97623]
%Inh [%]: 0

----------
Test system: MYLK
conditionDescription: concentration: 1 μM, replicates: in singlicate; n = 1
Item-by-item account of %Inh
property: %Inh (%)

compound: O=c1cc(N2CCOCC2)nc2n(Cc3ccccc3F)ccn12 [GSK2297428]
valueObserved: 12

compound: Cc1ccc(-c2nc(Nc3ccncc3)c3ccccc3n2)s1 [GSK189015]
valueObserved: 19

compound: CNc1nc(-c2ccc3c(N)n[nH]c3c2)cc(N2C[C@@H](C(=O)NC3CCCCC3)OC[C@H]2C)n1 [GSK2375584]
valueObserved: 18

----------
Tested on: SGK3
conditionDescription: concentration: 1 μM, replicates: in singlicate; n = 1
Cut-off 9% on %Inh, inclusive. At or above means Met; below means Not met.

compound: CNC(=O)c1ccc(C)c(-n2c(C)cc(OCc3ccc(F)cc3F)c(Br)c2=O)c1
qualitativeLabel: Not met
--
compound: CC(=O)c1c(C)c2cnc(Nc3ccc(N4CCNCC4)cn3)nc2n(C2CCCC2)c1=O
qualitativeLabel: Not met
--
compound: CCn1c(-c2c(N)noc2C)nc2cnccc21
qualitativeLabel: Not met
--
compound: COc1ccc(Nc2nccc(-c3ccc(NC(=O)c4cc5cc(F)ccc5[nH]4)cc3)n2)cc1
qualitativeLabel: Not met
--
compound: c1ccc(-c2ccnc3[nH]ccc23)cc1
qualitativeLabel: Met
--
compound: Cc1ccc(-c2nc(Nc3ccncc3)c3ccccc3n2)s1
qualitativeLabel: Met
--
compound: CSc1ccc(-c2nc3n(c2-c2ccncc2)CCC3)cc1
qualitativeLabel: Not met
--
compound: Cc1ccc(NC(=O)Nc2ccccc2F)cc1-c1ccc(C(=O)Nc2ccncc2)cc1
qualitativeLabel: Not met
--
compound: O=C(Nc1n[nH]c2nc(-c3ccco3)c(Br)cc12)C1CCN(Cc2ccccc2)C1.O=C(O)[C@H](O)[C@@H](O)C(=O)O (centres unmarked)
qualitativeLabel: Met
--
compound: COc1ccc(CSc2nnc(-c3ccc4ncsc4c3)o2)cc1C(F)(F)F
qualitativeLabel: Not met
--
compound: Cc1nccc(-c2c(-c3ccc(F)cc3)ncn2CCCN2CCOCC2)n1.Cl
qualitativeLabel: Met
--
compound: CNCc1ccc2nc(NC(=O)c3ccc(C(C)(C)C)cc3)cn2c1
qualitativeLabel: Met
--
compound: COc1ccc2cc(-c3nc(-c4ccccc4C(C)C)[nH]c3-c3ccncc3)ccc2c1
qualitativeLabel: Not met

----------
System: PRKX
conditionDescription: concentration: 1 μM, replicates: in singlicate; n = 1
Item-by-item account of %Inh
property: %Inh (%)

compoundString: Nc1nccc(-c2c(-c3ccc(F)cc3)ncn2C2CCN(Cc3ccccc3)CC2)n1
property: %Inh
valueObserved: 0
//
compoundString: CSc1ccc(-c2nc3n(c2-c2ccncc2)CCC3)cc1
property: %Inh
valueObserved: 0
//
compoundString: Cc1ccc(NC(=O)Nc2ccc(Cl)c(C(F)(F)F)c2)cc1-c1ccc(C(=O)Nc2ccncc2)cc1
property: %Inh
valueObserved: 0
//
compoundString: O=C1NC(=O)C(c2ccc(Cl)cc2)=C1Nc1cccc(Cl)c1
property: %Inh
valueObserved: 0
//
compoundString: CS(=O)(=O)CCNCc1nc(-c2ccc3ncnc(Nc4ccc5c(cnn5Cc5ccccc5)c4)c3c2)cs1.Cl.Cl
property: %Inh
valueObserved: 0
//
compoundString: NS(=O)(=O)c1cccc(N/C=C2\C(=O)Nc3ccc(S(=O)(=O)Cc4c(Cl)cccc4Cl)cc32)c1
property: %Inh
valueObserved: 12

----------
System: TGFBR2
conditionDescription: concentration: 1 μM, replicates: in singlicate; n = 1
Item-by-item account of %Inh
property: %Inh (%)

compound: Cc1c(Cn2c(C)c(C)n3c(=O)cc(N4CCOCC4)nc23)cccc1C(F)(F)F [GSK2328680]
property: %Inh
quantityUnit: %
valueObserved: 0
--
compound: CNCc1ccc2nc(NC(=O)c3ccc(C(C)(C)C)cc3)cn2c1
property: %Inh
quantityUnit: %
valueObserved: 2
--
compound: Fc1ccc(-c2nc3n(c2-c2ccncc2)CCS3)cc1 [GI98581]
property: %Inh
quantityUnit: %
valueObserved: 8
--
compound: CNc1nc(-c2ccc3c(N)n[nH]c3c2)cc(N2C[C@@H](C(=O)Nc3ccccc3)CC[C@H]2C)n1 [GSK2298859]
property: %Inh
quantityUnit: %
valueObserved: 0
--
compound: CNC(=O)c1ccc(C)c(-n2c(C)cc(OCc3ccc(F)cc3F)c(Br)c2=O)c1
property: %Inh
quantityUnit: %
valueObserved: 0
--
compound: Fc1ccc(-c2nn3cccc(F)c3c2-c2ccncc2)cc1 [GW475620]
property: %Inh
quantityUnit: %
valueObserved: 11
--
compound: Cc1ccc(NC(=O)Nc2ccc(Cl)c(C(F)(F)F)c2)cc1-c1ccc(C(=O)Nc2ccncc2)cc1 [GSK1398470]
property: %Inh
quantityUnit: %
valueObserved: 7
--
compound: COc1ccc(Nc2nccc(-c3ccc(NC(=O)c4cc5cc(F)ccc5[nH]4)cc3)n2)cc1 [GSK1229496]
property: %Inh
quantityUnit: %
valueObserved: 0
--
compound: O=c1cc(N2CCOCC2)nc2n(Cc3cccc(Cl)c3Cl)c3ccccc3n12 [GSK2299009]
property: %Inh
quantityUnit: %
valueObserved: 0
--
compound: CNc1cc(-c2ccc3c(N)n[nH]c3c2)nc(N)n1 [GSK2224810]
property: %Inh
quantityUnit: %
valueObserved: 47
--
compound: COc1cccc(NC(=O)Nc2ccc(C)c(-c3ccc(C(=O)Nc4ccncc4)cc3)c2)c1 [GSK1398474]
property: %Inh
quantityUnit: %
valueObserved: 0
--
compound: Cn1cncc1-c1cc2c(Nc3ccc(OCc4ccccc4)cc3)ncnc2cn1 [GW281179]
property: %Inh
quantityUnit: %
valueObserved: 0
--
compound: CC(C)c1ccc(O)cc1Nc1ccnc2ccc(C(F)(F)F)cc12 [GW482059]
property: %Inh
quantityUnit: %
valueObserved: 15

----------
Test system: ACVR2B
conditionDescription: concentration: 1 μM, replicates: in singlicate; n = 1
The entries below come with measured %Inh values attached.
property: %Inh (%)

compound: COc1cccc(CNC(=O)NC2CCN(c3ccnc(Nc4ccc(F)cc4)n3)C2)c1 (stereo not drawn)
experimentalSystem: ACVR2B
property: %Inh
valueObserved: 0

compound: Cc1ccc(NC(=O)c2ccc(Cl)cc2)cc1-c1ccc(C(=O)Nc2ccncc2)cc1
experimentalSystem: ACVR2B
property: %Inh
valueObserved: 10

compound: Cc1cnc(N)c(/C=C/c2cncc(C(=O)NCCc3ccc(Cl)cc3Cl)c2)c1.Cl
experimentalSystem: ACVR2B
property: %Inh
valueObserved: 0

compound: COc1cc2ncnc(Nc3cccc(Br)c3)c2cc1OC.Cl
experimentalSystem: ACVR2B
property: %Inh
valueObserved: 0

compound: Cc1ccccc1-c1cc(-c2c[nH]nc2-c2ccccn2)ccn1
experimentalSystem: ACVR2B
property: %Inh
valueObserved: 0

compound: O=C1NC(=O)C(c2ccc(Cl)cc2)=C1Nc1ccc(O)cc1
experimentalSystem: ACVR2B
property: %Inh
valueObserved: 0

compound: Nc1nccc(-c2c(-c3ccc(F)cc3)ncn2C2CCN(Cc3ccccc3)CC2)n1
experimentalSystem: ACVR2B
property: %Inh
valueObserved: 0

compound: c1ccc(-c2ccnc3[nH]ccc23)cc1
experimentalSystem: ACVR2B
property: %Inh
valueObserved: 0

compound: Cl.Cl.Cl.N#Cc1ccc(CCNc2nccc(-c3cccc(CN4CCNCC4)c3)n2)cc1
experimentalSystem: ACVR2B
property: %Inh
valueObserved: 0

compound: Nc1ncnc2occ(-c3ccc4c(c3)CCN4C(=O)Cc3cc(F)ccc3F)c12
experimentalSystem: ACVR2B
property: %Inh
valueObserved: 0

compound: CCn1c(-c2c(N)noc2C)nc2cnccc21
experimentalSystem: ACVR2B
property: %Inh
valueObserved: 0

compound: CNCc1ccc2nc(NC(=O)c3ccc(C(C)(C)C)cc3)cn2c1
experimentalSystem: ACVR2B
property: %Inh
valueObserved: 0

compound: Cc1cccc2c(-c3ccncn3)c(-c3ccc(F)cc3)nn12
experimentalSystem: ACVR2B
property: %Inh
valueObserved: 37

compound: CCCCc1nn2ncccc2c1-c1ccnc(NC2CC2)n1
experimentalSystem: ACVR2B
property: %Inh
valueObserved: 0

compound: COc1ccc(CSc2nnc(-c3ccc4ncsc4c3)o2)cc1C(F)(F)F
experimentalSystem: ACVR2B
property: %Inh
valueObserved: 0

compound: CC(C)c1cc(-c2ccc3c(N)n[nH]c3c2)nc(N)n1
experimentalSystem: ACVR2B
property: %Inh
valueObserved: 0

compound: CNc1nc(-c2ccc3c(N)n[nH]c3c2)cc(N2C[C@@H](C(=O)NC3CCCCC3)OC[C@H]2C)n1
experimentalSystem: ACVR2B
property: %Inh
valueObserved: 35

compound: Cc1ccc(-c2nc(Nc3ccncc3)c3ccccc3n2)s1
experimentalSystem: ACVR2B
property: %Inh
valueObserved: 11

compound: Cc1ccc(NC(=O)Nc2ccc(Cl)c(C(F)(F)F)c2)cc1-c1ccc(C(=O)Nc2ccncc2)cc1
experimentalSystem: ACVR2B
property: %Inh
valueObserved: 0

compound: COc1cccc(NC(=O)Nc2ccc(C)c(-c3ccc(C(=O)Nc4ccncc4)cc3)c2)c1
experimentalSystem: ACVR2B
property: %Inh
valueObserved: 12

compound: O=c1cc(N2CCOCC2)nc2n(Cc3ccccc3F)ccn12
experimentalSystem: ACVR2B
property: %Inh
valueObserved: 0

compound: CC(=O)c1cccc(NC(=O)NC2CCN(c3ccnc(Nc4ccc(F)cc4)n3)C2)c1 (stereo not drawn)
experimentalSystem: ACVR2B
property: %Inh
valueObserved: 13

compound: CC[C@@H]1CO[C@H](C(=O)Nc2ccccc2)CN1c1cc(-c2ccc3c(N)n[nH]c3c2)nc(NC)n1
experimentalSystem: ACVR2B
property: %Inh
valueObserved: 0

compound: COc1ccc(CSc2nnc(-c3ccc4c(c3)CCO4)o2)cc1
experimentalSystem: ACVR2B
property: %Inh
valueObserved: 0

compound: O=C1NC(=O)C(c2ccc(Cl)cc2)=C1Nc1cccc(Cl)c1
experimentalSystem: ACVR2B
property: %Inh
valueObserved: 0

compound: COC(=O)C(Cc1ccccc1)NC(=O)NC1CCN(c2ccnc(Nc3ccc(F)cc3)n2)C1 (stereo not drawn)
experimentalSystem: ACVR2B
property: %Inh
valueObserved: 6

compound: Nc1cccc(-c2ccc3c(N)n[nH]c3c2)n1
experimentalSystem: ACVR2B
property: %Inh
valueObserved: 9
